# System: K. pneumoniae IMP 204
# Type: cell-based, Klebsiella pneumoniae
# PROTOCOL CONDITIONS: IMP 204, 18 h
Where a SMILES comes first, the peptide text is derived from it. [ ]: non-standard residue; d: D form. The star is where a group is joined. d(aIle) = CC[C@H](C)[C@@H](N)C(=O)O; dOrn = NCCC[C@@H](N)C(=O)O; dDab = NCC[C@@H](N)C(=O)O; Octanoyl = CCCCCCCC(=O)*; Orn = NCCC[C@H](N)C(=O)O; Dab = NCC[C@H](N)C(=O)O
OBSERVABLE: Peptide MIC

Q. Output Peptide MIC of CCCCCCCC(=O)N[C@@H](C(=O)N[C@H](CCN)C(=O)NCC(=O)N[C@H](CO)C(=O)N[C@H](Cc1c[nH]c2ccccc12)C(=O)N[C@@H](CO)C(=O)N[C@@H](CCN)C(=O)N[C@H](CCN)C(=O)N[C@@H](Cc1ccccc1)C(=O)N[C@@H](CCC(=O)O)C(=O)N[C@H](C(=O)N[C@@H](C(=O)N[C@@H](C)C(=O)O)[C@@H](C)CC)C(C)C)C(C)C [Peptide 1, Oct-TriA1, reference compound]
A. 12.5 μg mL^–1

Q. For CCCCCCCC(=O)N[C@@H](C(=O)N[C@H](CCN)C(=O)NCC(=O)N[C@H](CO)C(=O)N[C@H](Cc1c[nH]c2ccccc12)C(=O)N[C@@H](CO)C(=O)N[C@@H](CCN)C(=O)N[C@H](CCN)C(=O)N[C@@H](Cc1ccccc1)C(=O)N[C@@H](CCC(=O)O)C(=O)N[C@H](C(=O)N[C@@H](C(=O)N[C@@H](C)C(=O)O)C(C)C)C(C)C)C(C)C [Peptide 2, Oct-TriA2] (Octanoyl-[dV][dDab]G[dS][dW]S[Dab][dDab]FEV[dV]A-OH) , write its Peptide MIC.
A. 12.5 μg mL^–1

Q. Provide only the value of recorded Peptide MIC for CCCCCCCC(=O)N[C@@H](C(=O)N[C@H](CCCCN)C(=O)NCC(=O)N[C@H](CO)C(=O)N[C@H](Cc1c[nH]c2ccccc12)C(=O)N[C@@H](CO)C(=O)N[C@@H](CCCCN)C(=O)N[C@H](CCN)C(=O)N[C@@H](Cc1ccccc1)C(=O)N[C@@H](CCC(=O)O)C(=O)N[C@H](C(=O)N[C@@H](C(=O)N[C@@H](C)C(=O)O)[C@@H](C)CC)C(C)C)C(C)C [Peptide 4, Oct-TriA1 (2-D-Lys, 7-Lys)] (Octanoyl-[dV][dK]G[dS][dW]SK[dDab]FEV[d(aIle)]A-OH)
A. 25 μg mL^–1

Q. Quick one: give measured Peptide MIC for CCCCCCCC(=O)N[C@@H](C(=O)N[C@H](CCCN)C(=O)NCC(=O)N[C@H](CO)C(=O)N[C@H](Cc1c[nH]c2ccccc12)C(=O)N[C@@H](CO)C(=O)N[C@@H](CCCN)C(=O)N[C@H](CCCN)C(=O)N[C@@H](Cc1ccccc1)C(=O)N[C@@H](CCC(=O)O)C(=O)N[C@H](C(=O)N[C@@H](C(=O)N[C@@H](C)C(=O)O)[C@@H](C)CC)C(C)C)C(C)C [Peptide 5, Oct-TriA1 (2,8-D-Orn, 7-Orn)] (Octanoyl-[dV][dOrn]G[dS][dW]S[Orn][dOrn]FEV[d(aIle)]A-OH)
A. 25 μg mL^–1

Q. Specify measured Peptide MIC for CCCCCCCC(=O)N[C@@H](C(=O)N[C@H](CCCCN)C(=O)NCC(=O)N[C@H](CO)C(=O)N[C@H](Cc1c[nH]c2ccccc12)C(=O)N[C@@H](CO)C(=O)N[C@@H](CCCCN)C(=O)N[C@H](CCCCN)C(=O)N[C@@H](Cc1ccccc1)C(=O)N[C@@H](CCC(=O)O)C(=O)N[C@H](C(=O)N[C@@H](C(=O)N[C@@H](C)C(=O)O)C(C)C)C(C)C)C(C)C [Peptide 8, Oct-TriA2 (2,8-D-Lys, 7-Lys)] (HELM PEPTIDE1{[CCCCCCCC(=O)[*:2]].[dV].[dK].G.[dS].[dW].S.K.[dK].F.E.V.[dV].A}$$$$V2.0) .
A. >100 μg mL^–1

Q. Give the value of Peptide MIC reported for the following: CCCCCCCC(=O)N[C@@H](C(=O)N[C@H](CCCN)C(=O)NCC(=O)N[C@H](CO)C(=O)N[C@H](Cc1c[nH]c2ccccc12)C(=O)N[C@@H](CO)C(=O)N[C@@H](CCCN)C(=O)N[C@H](CCCN)C(=O)N[C@@H](Cc1ccccc1)C(=O)N[C@@H](CCC(=O)O)C(=O)N[C@H](C(=O)N[C@@H](C(=O)N[C@@H](C)C(=O)O)C(C)C)C(C)C)C(C)C [Peptide 7, Oct-TriA2 (2,8-D-Orn, 7-Orn)] (Octanoyl-[dV][dOrn]G[dS][dW]S[Orn][dOrn]FEV[dV]A-OH)
A. 12.5 μg mL^–1

====

# Tested on: K. pneumoniae
# Type: cell-based, Klebsiella pneumoniae
# PROTOCOL CONDITIONS: 18 h
Where a SMILES comes first, the peptide text is derived from it. [ ]: non-standard residue; d: D form. The star is where a group is joined. d(aIle) = CC[C@H](C)[C@@H](N)C(=O)O; dOrn = NCCC[C@@H](N)C(=O)O; dDab = NCC[C@@H](N)C(=O)O; Octanoyl = CCCCCCCC(=O)*; Orn = NCCC[C@H](N)C(=O)O; Dab = NCC[C@H](N)C(=O)O
OBSERVABLE: Peptide MIC (μg mL^–1)
Write the answer as a number in μg mL^–1, unit excluded.

Q. For the compound CCCCCCCC(=O)N[C@@H](C(=O)N[C@H](CCCN)C(=O)NCC(=O)N[C@H](CO)C(=O)N[C@H](Cc1c[nH]c2ccccc12)C(=O)N[C@@H](CO)C(=O)N[C@@H](CCCN)C(=O)N[C@H](CCN)C(=O)N[C@@H](Cc1ccccc1)C(=O)N[C@@H](CCC(=O)O)C(=O)N[C@H](C(=O)N[C@@H](C(=O)N[C@@H](C)C(=O)O)[C@@H](C)CC)C(C)C)C(C)C [Peptide 3, Oct-TriA1 (2-D-Orn, 7-Orn)] (Octanoyl-[dV][dOrn]G[dS][dW]S[Orn][dDab]FEV[d(aIle)]A-OH) , give its reported Peptide MIC.
A. 100

Q. For the compound CCCCCCCC(=O)N[C@@H](C(=O)N[C@H](CCN)C(=O)NCC(=O)N[C@H](CO)C(=O)N[C@H](Cc1c[nH]c2ccccc12)C(=O)N[C@@H](CO)C(=O)N[C@@H](CCN)C(=O)N[C@H](CCN)C(=O)N[C@@H](Cc1ccccc1)C(=O)N[C@@H](CCC(=O)O)C(=O)N[C@H](C(=O)N[C@@H](C(=O)N[C@@H](C)C(=O)O)[C@@H](C)CC)C(C)C)C(C)C [Peptide 1, Oct-TriA1, reference compound] , give its measured Peptide MIC value.
A. 6.25

Q. Provide one value: measured Peptide MIC of CCCCCCCC(=O)N[C@@H](C(=O)N[C@H](CCN)C(=O)NCC(=O)N[C@H](CO)C(=O)N[C@H](Cc1c[nH]c2ccccc12)C(=O)N[C@@H](CO)C(=O)N[C@@H](CCN)C(=O)N[C@H](CCN)C(=O)N[C@@H](Cc1ccccc1)C(=O)N[C@@H](CCC(=O)O)C(=O)N[C@H](C(=O)N[C@@H](C(=O)N[C@@H](C)C(=O)O)C(C)C)C(C)C)C(C)C [Peptide 2, Oct-TriA2] (Octanoyl-[dV][dDab]G[dS][dW]S[Dab][dDab]FEV[dV]A-OH)
A. 12.5

Q. State its Peptide MIC for this compound: CCCCCCCC(=O)N[C@@H](C(=O)N[C@H](CCCN)C(=O)NCC(=O)N[C@H](CO)C(=O)N[C@H](Cc1c[nH]c2ccccc12)C(=O)N[C@@H](CO)C(=O)N[C@@H](CCCN)C(=O)N[C@H](CCCN)C(=O)N[C@@H](Cc1ccccc1)C(=O)N[C@@H](CCC(=O)O)C(=O)N[C@H](C(=O)N[C@@H](C(=O)N[C@@H](C)C(=O)O)[C@@H](C)CC)C(C)C)C(C)C [Peptide 5, Oct-TriA1 (2,8-D-Orn, 7-Orn)] (Octanoyl-[dV][dOrn]G[dS][dW]S[Orn][dOrn]FEV[d(aIle)]A-OH)
A. 12.5

Q. Quote Peptide MIC reported for CCCCCCCC(=O)N[C@@H](C(=O)N[C@H](CCCN)C(=O)NCC(=O)N[C@H](CO)C(=O)N[C@H](Cc1c[nH]c2ccccc12)C(=O)N[C@@H](CO)C(=O)N[C@@H](CCCN)C(=O)N[C@H](CCCN)C(=O)N[C@@H](Cc1ccccc1)C(=O)N[C@@H](CCC(=O)O)C(=O)N[C@H](C(=O)N[C@@H](C(=O)N[C@@H](C)C(=O)O)C(C)C)C(C)C)C(C)C [Peptide 7, Oct-TriA2 (2,8-D-Orn, 7-Orn)] (Octanoyl-[dV][dOrn]G[dS][dW]S[Orn][dOrn]FEV[dV]A-OH) please.
A. 50
